# System: M14
# MEASUREMENT DESCRIPTION: NCI tumour cell line growth inhibition, 48 h
Calls of active or inactive are those of the source. Rule as the data show it: active = GI50 up to about 1.1 µM and inactive = higher.
ASSAY ENDPOINT: GI50

>>> result("C[C@]12CCC(=O)C[C@H]1CCC(O)[C@@H]2Br (some centres not stated)")
"> 100 µM (inactive)"
>>> result("COC(=O)[C@H](Cc1ccccc1)NC(=O)c1ccc(CNC(=O)/C=C/c2csc(-c3ccccc3)n2)cc1")
"1.84 µM (inactive)"
>>> result("CC(O)C(C(=O)O)N(CC1(O)OCC(O)C(O)C1O)N=O (configuration not stated)")
"> 100 µM (inactive)"
>>> result("CC1(C)C2CCC13C(=O)C1OC3(C2)C2C(=O)N(c3ccccc3)C(=O)C12 (configuration not stated)")
"> 100 µM (inactive)"
>>> result("c1cc2cc(Cc3ccc4[nH]ccc4c3)ccc2[nH]1")
"17.1 µM (inactive)"

Look up GI50: CCN1c2ccccc2NC(=S)c2c(-c3ccccc3)n[nH]c21 31.6 µM (inactive)

Similarly, OCC1OC(n2cnc3cccnc32)CC1O (configuration not stated) ? > 100 µM (inactive)

Attribution: ChEMBL document CHEMBL1201862
